The reader will find IC50 measurements below, all made with KPC-2 (Klebsiella pneumoniae).
Numbers only; they are read as nM.

Use the examples below as a reference point.
NC(=O)CNCc1cn(C2=CC3CN(C2)C(=O)N3OS(=O)(=O)O)nn1 (stereo not shown) [Example 66]    6.1
CNCc1cn(C2=CC3CN(C2)C(=O)N3OS(=O)(=O)O)nn1 (stereo not shown) [Example 60]    14
O=C(CO)Nc1ccn(C2=CC3CN(C2)C(=O)N3OS(=O)(=O)[O-])n1.[Na+] (stereo not shown) [Example 50]    12
O=C(NCCN1CCOCC1)c1ccn(C2=CC3CN(C2)C(=O)N3OS(=O)(=O)O)n1 (stereo not shown) [Example 72]    7

Recall the recorded IC50 for NCCONC(=O)c1cn(C2=CC3CN(C2)C(=O)N3OS(=O)(=O)O)nn1 (stereo not shown) [Example 63] with KPC-2 (Klebsiella pneumoniae) and state it.
4.7
